Attribute: inhibition at 10 µM
# system.tested: CDK11A/Cyclin L2 (Homo sapiens, UniProt Q9UQ88)
# Sequence (Q9UQ88 1-783): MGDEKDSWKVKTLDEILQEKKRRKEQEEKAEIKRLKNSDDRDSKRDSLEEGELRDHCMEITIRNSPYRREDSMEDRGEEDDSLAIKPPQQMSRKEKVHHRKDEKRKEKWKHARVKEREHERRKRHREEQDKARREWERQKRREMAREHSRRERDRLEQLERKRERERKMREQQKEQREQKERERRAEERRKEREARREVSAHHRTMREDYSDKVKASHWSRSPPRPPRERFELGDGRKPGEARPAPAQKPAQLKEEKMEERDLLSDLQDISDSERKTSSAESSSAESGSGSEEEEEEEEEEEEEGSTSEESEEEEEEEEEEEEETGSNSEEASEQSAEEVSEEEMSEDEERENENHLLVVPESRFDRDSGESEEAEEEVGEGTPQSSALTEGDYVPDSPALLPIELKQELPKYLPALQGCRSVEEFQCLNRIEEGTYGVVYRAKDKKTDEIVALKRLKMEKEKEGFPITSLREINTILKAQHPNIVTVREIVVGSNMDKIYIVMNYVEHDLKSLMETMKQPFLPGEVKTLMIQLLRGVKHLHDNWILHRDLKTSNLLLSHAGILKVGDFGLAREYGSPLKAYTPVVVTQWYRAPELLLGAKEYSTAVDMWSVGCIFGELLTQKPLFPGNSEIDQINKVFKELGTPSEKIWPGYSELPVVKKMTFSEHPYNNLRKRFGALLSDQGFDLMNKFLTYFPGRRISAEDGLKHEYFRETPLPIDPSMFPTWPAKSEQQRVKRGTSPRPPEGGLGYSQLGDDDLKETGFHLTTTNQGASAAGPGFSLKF
# experiment.description: NanoBRET live-cell target engagement, CDK11A-NanoLuc/Cyclin L2 in HEK-293
# Type: binding
# reported.conditions: CDK11a/L2; experiment 1; read-out: Inhibition at 10µM (%)
A complete answer gives the number followed by the unit.

NS(=O)(=O)c1ccc(Nc2nc(OCC3CCCCC3)c3nc[nH]c3n2)cc1
10.4%
N#CCNC(=O)c1ccc(-c2ccnc(Nc3ccc(N4CCOCC4)cc3)n2)cc1
31.7%
CN1CC[C@H](c2c(O)cc(O)c3c(=O)cc(-c4ccccc4Cl)oc23)[C@H](O)C1
30.2%

For the next question, use this compound.
Using known records, supply inhibition at 10 µM for `CC(C)N1CCN(c2ccc(Nc3ncc4cc5n(c4n3)C3(CCCCC3)CNC5=O)nc2)CC1`
2%

* * *

Attribute: IC50
# system.tested: CDK14/Cyclin Y (Homo sapiens, UniProt O94921)
# Sequence (O94921 whole entry): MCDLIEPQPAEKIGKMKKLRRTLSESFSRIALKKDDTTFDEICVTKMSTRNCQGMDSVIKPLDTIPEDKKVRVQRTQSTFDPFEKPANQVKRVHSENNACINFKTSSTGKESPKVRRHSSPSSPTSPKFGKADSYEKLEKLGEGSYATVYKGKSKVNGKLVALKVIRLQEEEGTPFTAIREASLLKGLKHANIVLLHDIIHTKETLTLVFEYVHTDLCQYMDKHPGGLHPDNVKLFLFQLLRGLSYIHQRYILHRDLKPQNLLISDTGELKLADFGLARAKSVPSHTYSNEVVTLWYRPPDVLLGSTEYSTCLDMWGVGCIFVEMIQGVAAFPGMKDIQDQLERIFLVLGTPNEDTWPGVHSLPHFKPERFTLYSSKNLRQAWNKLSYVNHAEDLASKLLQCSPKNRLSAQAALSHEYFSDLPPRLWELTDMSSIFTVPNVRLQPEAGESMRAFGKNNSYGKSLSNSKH
# Sequence (Q8ND76 whole entry partner): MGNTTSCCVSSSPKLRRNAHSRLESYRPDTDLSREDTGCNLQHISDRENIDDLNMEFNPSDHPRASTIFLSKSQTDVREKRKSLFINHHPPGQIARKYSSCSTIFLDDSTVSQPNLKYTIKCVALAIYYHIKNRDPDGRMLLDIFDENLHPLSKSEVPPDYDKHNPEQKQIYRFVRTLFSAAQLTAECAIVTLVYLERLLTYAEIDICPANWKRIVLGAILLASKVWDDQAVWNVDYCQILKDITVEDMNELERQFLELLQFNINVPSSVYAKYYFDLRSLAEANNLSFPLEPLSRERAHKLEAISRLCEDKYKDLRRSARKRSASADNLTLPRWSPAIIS
# experiment.description: NanoBRET live-cell target engagement, CDK14-NanoLuc/Cyclin Y in HEK-293
# Type: binding
# reported.conditions: independent experiment 1; read-out: CDK14/Y IC50
Give the value in nM but do not write nM after it.

COCCN1CCN(Cc2ccc(-c3n[nH]c4c3C(=O)c3c(NC(=O)NN5CCOCC5)cccc3-4)cc2)CC1
30

For the next question, use this molecule.
Using known records, supply IC50 for `CN1C/C=C/CCOc2cccc(c2)-c2ccnc(n2)Nc2cccc(c2)C1`
28

* * *

# system.tested: CDK13/Cyclin K (Homo sapiens, UniProt Q14004)
# Sequence (Q14004 other isoform, or with tags, fused parts or gaps, one chain of several): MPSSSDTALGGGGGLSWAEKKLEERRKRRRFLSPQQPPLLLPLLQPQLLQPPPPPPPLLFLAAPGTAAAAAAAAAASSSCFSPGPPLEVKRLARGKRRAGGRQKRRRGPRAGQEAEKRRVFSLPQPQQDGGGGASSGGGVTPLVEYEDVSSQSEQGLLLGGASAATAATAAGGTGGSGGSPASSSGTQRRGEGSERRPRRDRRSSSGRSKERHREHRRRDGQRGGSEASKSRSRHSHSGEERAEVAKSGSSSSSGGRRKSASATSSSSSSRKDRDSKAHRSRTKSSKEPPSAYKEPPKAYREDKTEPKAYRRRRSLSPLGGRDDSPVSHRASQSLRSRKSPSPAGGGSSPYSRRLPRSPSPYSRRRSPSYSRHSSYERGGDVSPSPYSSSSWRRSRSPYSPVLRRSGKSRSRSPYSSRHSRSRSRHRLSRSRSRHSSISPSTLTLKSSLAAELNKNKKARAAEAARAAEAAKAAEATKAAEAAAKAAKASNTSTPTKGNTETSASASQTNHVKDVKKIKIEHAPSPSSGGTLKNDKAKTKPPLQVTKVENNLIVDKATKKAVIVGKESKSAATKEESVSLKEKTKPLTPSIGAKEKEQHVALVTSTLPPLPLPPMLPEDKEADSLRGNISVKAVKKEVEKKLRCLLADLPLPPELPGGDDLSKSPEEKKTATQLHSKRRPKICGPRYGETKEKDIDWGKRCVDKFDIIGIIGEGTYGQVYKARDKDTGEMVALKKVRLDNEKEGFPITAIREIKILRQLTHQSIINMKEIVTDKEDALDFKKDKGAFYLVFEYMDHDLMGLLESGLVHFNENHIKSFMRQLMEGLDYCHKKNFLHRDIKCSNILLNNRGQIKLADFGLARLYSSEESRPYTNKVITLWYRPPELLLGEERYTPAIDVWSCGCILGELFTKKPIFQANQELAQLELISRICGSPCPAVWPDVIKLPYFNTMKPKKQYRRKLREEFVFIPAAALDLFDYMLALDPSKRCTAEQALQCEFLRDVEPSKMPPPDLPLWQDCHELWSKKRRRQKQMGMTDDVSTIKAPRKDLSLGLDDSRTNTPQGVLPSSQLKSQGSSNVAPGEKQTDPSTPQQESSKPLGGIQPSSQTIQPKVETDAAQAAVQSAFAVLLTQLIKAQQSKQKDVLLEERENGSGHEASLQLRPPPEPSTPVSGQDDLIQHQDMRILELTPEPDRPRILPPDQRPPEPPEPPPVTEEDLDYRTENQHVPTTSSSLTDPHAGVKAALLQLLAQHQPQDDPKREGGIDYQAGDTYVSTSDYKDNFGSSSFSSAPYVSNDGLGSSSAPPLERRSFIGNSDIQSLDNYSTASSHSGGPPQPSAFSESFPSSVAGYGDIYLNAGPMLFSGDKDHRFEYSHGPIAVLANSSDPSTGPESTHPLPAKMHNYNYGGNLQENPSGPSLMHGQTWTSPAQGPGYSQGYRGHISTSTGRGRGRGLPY
# experiment.description: NanoBRET live-cell target engagement, CDK13-NanoLuc/Cyclin K in HEK-293
# Assay type: binding
# reported.conditions: CDK13/K; experiment 1
Attribute: Inhibition at 10µM (%)
Give the value in % but do not write % after it.

As a guide, the following entries are already answered.
CC(C)c1c2cc(-c3ccnc(N[C@H]4CC[C@H](NC5CCOCC5)CC4)n3)ccc2nn1C
28.2
CNc1nc(C)c(-c2nc(Nc3cccc(S(N)(=O)=O)c3)ncc2F)s1
35.9
CCn1cnc2c(Nc3cccc(Cl)c3)nc(N[C@@H]3CCCC[C@@H]3N)nc21 [CGP74514A]
36.4
CN1CCC(c2c(O)cc(O)c3c(=O)cc(-c4ccccc4Cl)oc23)C1CO (stereo not drawn)
12.5
CC(C)c1cnn2c(NCc3ccccc3-n3cccn3)nc(OC3CCCNC3)nc12 (stereo not drawn)
20.0

For the next question, use this compound.
Using known records, supply Inhibition at 10µM (%) for `CS(=O)(=O)N1CCC(NC(=O)c2[nH]ncc2NC(=O)c2c(Cl)cccc2Cl)CC1`
29.4

* * *

# system.tested: CDK7 (Homo sapiens, UniProt P50613)
# Sequence (P50613 whole entry): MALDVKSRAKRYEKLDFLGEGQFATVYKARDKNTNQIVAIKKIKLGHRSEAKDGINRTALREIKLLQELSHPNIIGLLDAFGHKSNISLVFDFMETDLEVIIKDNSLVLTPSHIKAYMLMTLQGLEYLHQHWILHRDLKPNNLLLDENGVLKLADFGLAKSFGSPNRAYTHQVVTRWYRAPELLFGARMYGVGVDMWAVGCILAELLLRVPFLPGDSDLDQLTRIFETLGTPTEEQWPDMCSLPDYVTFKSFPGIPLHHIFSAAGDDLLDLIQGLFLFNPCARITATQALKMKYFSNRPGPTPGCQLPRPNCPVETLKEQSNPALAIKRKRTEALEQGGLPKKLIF
# experiment.description: NanoBRET live-cell target engagement, NanoLuc-CDK7 in HEK-293
# Type: binding
# reported.conditions: 10µM; independent experiment 2; read-out: CDK7 Inhibition at 10µM (%)
Rule: inhibition at 10 µM under 90% gives 0 (no), otherwise 1 (yes).

Consider the worked cases shown below.
CC(C)CC(=O)Nc1[nH]nc2c1CN(C(=O)C1CCN(C)CC1)C2(C)C
1 (yes)
CC(C)[C@H](CO)Nc1nc(Nc2ccc(C(=O)O)c(Cl)c2)c2ncn(C(C)C)c2n1
0 (no)
CN1C/C=C/CCOc2cccc(c2)-c2ccnc(n2)Nc2cccc(c2)C1
1 (yes)
COCCN1CCN(Cc2ccc(-c3n[nH]c4c3C(=O)c3c(NC(=O)NN5CCOCC5)cccc3-4)cc2)CC1
1 (yes)
CN1CCN(c2ccc(Nc3ncc4cc5n(c4n3)C3(CCCCC3)CNC5=O)nc2)CC1
0 (no)

Is it the case that `CN(C)C(=O)c1cc2cnc(Nc3ccc(N4CCNCC4)cn3)nc2n1C1CCCC1` has inhibition at 10 µM reaching or exceeding 90%?
0 (no)

Is it the case that `CC(=O)c1c(C)c2cnc(Nc3ccc(N4CCNCC4)cn3)nc2n(C2CCCC2)c1=O` has inhibition at 10 µM reaching or exceeding 90%?
0 (no)

* * *

Attribute: Inhibition at 10µM (%) Average
# system.tested: CDK4/Cyclin D1 (Homo sapiens)
# experiment.description: NanoBRET live-cell target engagement, NanoLuc-CDK4/Cyclin D1 in HEK-293
# Type: binding
# reported.conditions: CDK4/D1; 10µM; average of replicates
Give the value in % but do not write % after it.

As a guide, the following entries are already answered.
CC(C)c1cnn2c(NCc3ccccc3)cc(N[C@@H](CO)[C@H](O)CO)nc12 [BS-194]
76.6
O=C(Nc1c[nH]nc1-c1ccccn1)c1nn(C2CCNCC2)cc1Cl [BDP5290]
13.8
CNC1CCN(C(=O)c2ccc(Nc3ncc(F)c(-c4cnc(C)n4C(C)C)n3)cc2)C1 (stereo not shown) [AZD5597]
99.6

For the next question, use this molecule.
Using known records, supply Inhibition at 10µM (%) Average for CCC(CO)Nc1nc(Nc2cccc(-c3ccccn3)c2)c2ncn(C(C)C)c2n1.Cl.O [(R) - DRF053]
21.1

* * *

# system.tested: CDK12/Cyclin K (Homo sapiens, UniProt Q9NYV4)
# Sequence (Q9NYV4 1-1481 isoform Q9NYV4-2): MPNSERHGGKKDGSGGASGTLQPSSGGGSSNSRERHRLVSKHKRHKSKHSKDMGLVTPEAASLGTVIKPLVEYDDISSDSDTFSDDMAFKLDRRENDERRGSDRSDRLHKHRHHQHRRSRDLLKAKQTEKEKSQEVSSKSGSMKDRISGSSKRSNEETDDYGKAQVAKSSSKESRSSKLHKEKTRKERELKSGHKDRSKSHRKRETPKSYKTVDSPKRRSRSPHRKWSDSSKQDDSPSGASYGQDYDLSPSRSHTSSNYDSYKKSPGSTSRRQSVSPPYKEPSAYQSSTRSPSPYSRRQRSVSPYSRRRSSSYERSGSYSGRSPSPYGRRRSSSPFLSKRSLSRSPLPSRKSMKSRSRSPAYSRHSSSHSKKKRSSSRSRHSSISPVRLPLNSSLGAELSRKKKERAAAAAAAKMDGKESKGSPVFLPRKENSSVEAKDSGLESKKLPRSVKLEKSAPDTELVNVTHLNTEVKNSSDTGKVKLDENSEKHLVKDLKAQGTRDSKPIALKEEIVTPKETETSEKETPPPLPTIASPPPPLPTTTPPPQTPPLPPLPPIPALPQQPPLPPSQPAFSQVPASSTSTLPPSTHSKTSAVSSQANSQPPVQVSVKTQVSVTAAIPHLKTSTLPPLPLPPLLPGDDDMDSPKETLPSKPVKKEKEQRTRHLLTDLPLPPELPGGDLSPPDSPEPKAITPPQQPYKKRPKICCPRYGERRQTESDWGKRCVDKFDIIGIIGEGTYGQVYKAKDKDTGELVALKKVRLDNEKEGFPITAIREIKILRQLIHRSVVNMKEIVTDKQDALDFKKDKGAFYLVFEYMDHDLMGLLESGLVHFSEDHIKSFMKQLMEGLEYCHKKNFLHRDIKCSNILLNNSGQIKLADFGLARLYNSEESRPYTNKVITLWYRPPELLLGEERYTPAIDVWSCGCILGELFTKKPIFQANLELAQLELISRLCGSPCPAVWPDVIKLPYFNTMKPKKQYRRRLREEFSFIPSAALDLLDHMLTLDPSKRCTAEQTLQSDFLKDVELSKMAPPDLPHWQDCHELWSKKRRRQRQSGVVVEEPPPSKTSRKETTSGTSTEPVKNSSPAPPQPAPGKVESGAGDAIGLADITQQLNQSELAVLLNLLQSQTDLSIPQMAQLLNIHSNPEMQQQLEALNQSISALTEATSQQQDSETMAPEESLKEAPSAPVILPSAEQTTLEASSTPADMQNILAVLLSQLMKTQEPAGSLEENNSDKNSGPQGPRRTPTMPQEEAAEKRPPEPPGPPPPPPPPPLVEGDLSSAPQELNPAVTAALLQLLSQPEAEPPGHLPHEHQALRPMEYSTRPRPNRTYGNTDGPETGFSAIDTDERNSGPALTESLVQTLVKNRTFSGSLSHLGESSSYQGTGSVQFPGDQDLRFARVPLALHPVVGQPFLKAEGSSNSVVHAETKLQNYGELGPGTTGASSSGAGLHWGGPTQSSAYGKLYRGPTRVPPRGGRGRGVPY
# Sequence (O75909 whole entry partner): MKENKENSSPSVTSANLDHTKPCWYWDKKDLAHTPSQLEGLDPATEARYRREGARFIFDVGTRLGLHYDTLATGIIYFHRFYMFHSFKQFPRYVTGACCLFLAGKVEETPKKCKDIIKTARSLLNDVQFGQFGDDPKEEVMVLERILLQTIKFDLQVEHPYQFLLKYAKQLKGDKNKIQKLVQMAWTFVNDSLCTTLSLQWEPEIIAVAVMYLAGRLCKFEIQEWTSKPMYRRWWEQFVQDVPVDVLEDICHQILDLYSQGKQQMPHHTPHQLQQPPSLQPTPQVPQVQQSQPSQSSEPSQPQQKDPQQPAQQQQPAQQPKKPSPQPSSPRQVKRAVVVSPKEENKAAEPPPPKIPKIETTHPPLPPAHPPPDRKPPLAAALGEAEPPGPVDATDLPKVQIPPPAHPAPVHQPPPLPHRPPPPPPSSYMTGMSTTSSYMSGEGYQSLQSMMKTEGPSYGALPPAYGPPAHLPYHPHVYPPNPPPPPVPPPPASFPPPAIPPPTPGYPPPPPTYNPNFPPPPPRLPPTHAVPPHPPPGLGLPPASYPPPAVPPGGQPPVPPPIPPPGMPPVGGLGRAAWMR
# experiment.description: NanoBRET live-cell target engagement, CDK12-NanoLuc/Cyclin K in HEK-293
# Assay type: binding
# reported.conditions: 10µM; independent experiment 2; read-out: CDK12/K Inhibition at 10µM (%)
value.type: inhibition at 10 µM (%)
Give the value in % but do not write % after it.

As a guide, the following entries are already answered.
CC(C)[C@H](CO)Nc1nc(Nc2ccc(C(=O)O)c(Cl)c2)c2ncn(C(C)C)c2n1
-1.1
CN1CCN(c2ccc(Nc3ncc4cc5n(c4n3)C3(CCCCC3)CNC5=O)nc2)CC1
0.155
CC(=O)c1c(C)c2cnc(Nc3ccc(N4CCNCC4)cn3)nc2n(C2CCCC2)c1=O
2.4
CC(C)CC(=O)Nc1[nH]nc2c1CN(C(=O)C1CCN(C)CC1)C2(C)C
29.9
CN(C)C/C=C/C(=O)Nc1ccc(C(=O)N2CCC[C@@H](Nc3ncc(Cl)c(-c4c[nH]c5ccccc45)n3)C2)cc1
54.3

Using known records, supply inhibition at 10 µM for `CN1C/C=C/CCOc2cccc(c2)-c2ccnc(n2)Nc2cccc(c2)C1`
76

Using known records, supply inhibition at 10 µM for `CN(C)C(=O)c1cc2cnc(Nc3ccc(N4CCNCC4)cn3)nc2n1C1CCCC1`
9.1

* * *

# system.tested: CDK18/Cyclin Y (Homo sapiens, UniProt Q07002)
# experiment.description: NanoBRET live-cell target engagement, CDK18-NanoLuc/Cyclin Y in HEK-293
# Assay type: binding
# reported.conditions: CDK18/Y; experiment 2; read-out: Inhibition at 10µM (%)
value.type: inhibition at 10 µM (%)
Give the value in % but do not write % after it.

NS(=O)(=O)c1ccc(Nc2nc(OCC3CCCCC3)c3nc[nH]c3n2)cc1
40.1
CC(C)N1CCN(c2ccc(Nc3ncc4cc5n(c4n3)C3(CCCCC3)CNC5=O)nc2)CC1
16.8
CN1CCN(c2ccc(Nc3ncc4cc(C#N)c(=O)n(C5CCCC5)c4n3)cc2)CC1
50
N#CCNC(=O)c1ccc(-c2ccnc(Nc3ccc(N4CCOCC4)cc3)n2)cc1
21.8
CC(C)(C)c1nc(-c2cccc(NS(=O)(=O)c3c(F)cccc3F)c2F)c(-c2ccnc(N)n2)s1
14.5
Cn1cc(-c2ccc(-c3cncc(Cl)c3N3CCC4(CCNC4=O)CC3)cc2)cn1
19.2

Using known records, supply inhibition at 10 µM for `CNC(=O)c1nn(C)c2c1C(C)(C)Cc1cnc(Nc3ccc(N4CCN(C)CC4)cc3)nc1-2`
85.3

Using known records, supply inhibition at 10 µM for `CC(C)c1cnn2c(NCc3ccccc3)cc(NC[C@H]3CCNC[C@@H]3O)nc12`
76.7

Using known records, supply inhibition at 10 µM for `CN1CCN(Cc2ccc(NC(=O)Nc3ccc(Oc4ccnc(N)n4)cc3)cc2C(F)(F)F)CC1`
99.2

Using known records, supply inhibition at 10 µM for COc1ccc(F)cc1-c1cc(NC(=O)C2CCCNC2)ncc1Cl (stereo not shown)
102

Ref: paper PMC7265341
